- Assay Comment: chemical genetic growth profiling, strain panel (AID 1159580);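 also: tested at 20 µM; growth read once vehicle control cultures reached saturation at 30 °C; 1 = growth at the plate median or of vehicle wells; lower values mean less growth of the strain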
- Condition Description: S. cerevisiae deletion strains, growth OD, locus YER110C, active compounds read low
The whole screen tested about 5,500 compounds, of which about 2,000 (36%) were called active. Roughly 18% stayed inconclusive and do not appear here. This is one part of the list.
Observation Type: normalized growth
Enter the number alone.

Answered cases to consult:
Molecule	Observation Type	Meas Value
COC(=O)Nc1nc2ccc(Sc3ccccc3)cc2[nH]1	normalized growth	0.995
CC(=O)OC1CC[C@@]2(C)C(CC[C@]3(C)C2CCC2C4CC(C)(C)CCC4(C(=O)O)CC[C@]23C)C1(C)C (some centres undefined)	normalized growth	0.971
CNC(=O)O/N=C\C(C)(C)SC	normalized growth	0.983

**Query** Return reported normalized growth; argument: COc1ccc2c(c1)c(CC(=O)O)c(C)n2C(=O)c1ccc(Cl)cc1
**Result** 0.986

**Query** So what's the measured normalized growth for this one? COC(=O)Nc1nc2ccc(C(=O)c3ccccc3)cc2[nH]1
**Result** 1.02

**Query** Name the recorded normalized growth for CC(=O)NCc1c(I)c(NC(C)=O)c(I)c(C(=O)O)c1I .
**Result** 0.996

**Query** // lookup normalized growth for Cc1cn([C@H]2C[C@H](N=[N+]=[N-])[C@@H](CO)O2)c(=O)[nH]c1=O
**Result** 1.02

**Query** Fill blank: measured normalized growth of the molecule O=c1[nH]cc(F)c(=O)[nH]1 is ____.
**Result** 1.01

**Query** # normalized growth lookup, item C[C@@H]1CC[C@]2(C(=O)O)CC[C@]3(C)C(=CCC4[C@@]5(C)CC[C@H](O)C(C)(C)C5CC[C@]43C)C2[C@H]1C (some centres undefined)
**Result** 1.01

**Query** State the recorded normalized growth for this entry: COc1cc(N)c(Cl)cc1C(=O)NC1CCN(Cc2ccccc2)CC1
**Result** 0.995

**Query** // query normalized growth value for entry COc1c(CC(=O)c2cc3c(cc2O)OC(C)(C)C(O)C3)ccc2c1C=CC(C)(C)O2 (centres undefined)
**Result** 1.01

**Query** Record request: normalized growth value, item CC(C)(Sc1cc(C(C)(C)C)c(O)c(C(C)(C)C)c1)Sc1cc(C(C)(C)C)c(O)c(C(C)(C)C)c1
**Result** 1.02

**Query** # lookup: normalized growth of NNC(=O)c1ccncc1
**Result** 0.988

**Query** Entry CC(=O)OC1CC(OC(C)=O)C2(C)C(CC(OC(C)=O)C3(C)C4=CC(=O)OC(=O)C4(C)CCC32)C1(C)C (centres undefined) has what normalized growth?
**Result** 1

**Query** Look up normalized growth: CCOP(=S)(OCC)Oc1nc(Cl)c(Cl)cc1Cl
**Result** 0.993

**Query** State the recorded normalized growth for this entry: O=C1C(O)=C(O)C(=O)C(O)=C1O
**Result** 0.986

**Query** Can you share its normalized growth? I mean this molecule: Cc1cc(O)cc(=O)o1
**Result** 0.986

**Query** Query (molecule): CC(C)CC(N(C)C)C1(c2ccc(Cl)cc2)CCC1 (centres undefined) ; field requested: normalized growth
**Result** 1.01

**Query** Fill blank: measured normalized growth of the molecule C#C[C@]1(O)CCC2C3CCC4=CC(=O)CC[C@@H]4C3CC[C@@]21CC (some centres undefined) is ____.
**Result** 0.999

----------
Listed below: normalized growth values for each entry.
- Assay Comment: chemical genetic growth profiling, strain panel (AID 1159580)
- Condition Description: S. cerevisiae deletion strains, growth OD, locus YPL055C, strain LGE1, active compounds read low
Out of some 5,500 compounds screened, about 2,000 (36%) were called active. Inconclusive results (about 18%) are left out. This is one part of the list.
Lab note: write the figure by itself, no unit.

Below: 3 compounds and their reported normalized growth.
Compound	normalized growth
COc1ccc2[nH]cc(CCN)c2c1	0.977
CC1C(=O)OC2C1CCC1(C)C=CC(=O)C3(C)OC213 (centres undefined)	0.974
N=C(N)SCCN	1.01

**Query** Entry O=C(O)CSCC(=O)NC1CCN(Cc2ccccc2)CC1 : reported normalized growth = ?
**Result** 1.02

**Query** Bench note: what normalized growth did COC(=O)C1Cc2c([nH]c3ccccc23)C2(CCN(C)CC2)N1 (centres undefined) show?
**Result** 1.01

**Query** For the compound C[C@@H]1OC(O[C@H]2[C@H](O)[C@@H](O)[C@H](OC[C@H]3O[C@@H](OC(=O)[C@]45CCC(C)(C)CC4C4=CCC6[C@@]7(C)CC[C@H](OC8OC[C@H](O)[C@H](O)[C@H]8OC8O[C@@H](C)[C@H](O)[C@@H](O)[C@H]8O)[C@@](C)(CO)C7CC[C@@]6(C)[C@]4(C)CC5)[C@H](O)[C@@H](O)[C@@H]3O)O[C@@H]2CO)[C@H](O)[C@H](O)[C@H]1O (some centres undefined) , what normalized growth is on record?
**Result** 1.02

**Query** May I ask what normalized growth has been recorded for CC(=O)O[C@H]1CC[C@@]2(C)C(CC[C@]3(C)C2C(=O)C=C2C4[C@@H](C)[C@H](C)CC[C@]4(C(=O)O)CC[C@]23C)C1(C)C (some centres undefined) ?
**Result** 0.994

**Query** Fill in: normalized growth of Cc1csc2ccc(Cl)cc12 is ___
**Result** 0.996

----------
- Assay Comment: chemical genetic growth profiling, strain panel (AID 1159580);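 also: tested at 20 µM; growth read once vehicle control cultures reached saturation at 30 °C; 1 = growth at the plate median or of vehicle wells; lower values mean less growth of the strain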
- Condition Description: S. cerevisiae deletion strains, growth OD, locus YOR231W, strain MKK1
The campaign covered roughly 5,500 compounds. About 2,000 (36%) were called active. Not shown: some 18% with an inconclusive outcome. Rule as the data show it: active = normalized growth mostly below about 0.91 (no sharp cut-off); inconclusive = no clear call, values can overlap the other calls; inactive = mostly above about 0.92. This is one part of the list.
Please answer using one outcome listed in active, inactive

Compound	Category
CCCCCCCCCCCCCCCCC(C(=O)O)C(O)(CC(=O)O)C(=O)O (centres undefined)	active

**Query** Which result was noted for this compound in the test: N#CC(O[C@@H]1O[C@H](CO[C@@H]2O[C@H](CO)[C@@H](O)[C@H](O)[C@H]2O)[C@@H](O)[C@H](O)[C@H]1O)c1ccccc1 (some centres undefined)
**Result** inactive

**Query** Identify the outcome logged in this assay for the compound shown: OC(CCN1CCCCC1)(c1ccccc1)C1CCCCC1 (centres undefined)
**Result** inactive

**Query** Please indicate how the test categorized C[C@@H]1CC[C@H]2[C@@H](C)C(O)O[C@@H]3O[C@@]4(C)CC[C@@H]1[C@]32OO4 (some centres undefined) .
**Result** active

----------
- Assay Comment: chemical genetic growth profiling, strain panel (AID 1159580);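 also: tested at 20 µM; growth read once vehicle control cultures reached saturation at 30 °C; 1 = growth at the plate median or of vehicle wells; lower values mean less growth of the strain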
- Condition Description: S. cerevisiae deletion strains, growth OD, locus YNL233W, strain BNI4, active compounds read low
About 2,000 (36%) of roughly 5,500 compounds were called active. Inconclusive results (about 18%) are left out. This is one part of the list.
Observation Type: normalized growth
Answer using only a numeral; do not append any unit.

**Query** Endpoint output: normalized growth of NNc1nncc2ccccc12 . Value?
**Result** 0.997

**Query** Find the recorded normalized growth belonging to Nc1c2c(nc3ccccc13)CCCC2 and report it.
**Result** 0.999

**Query** Quick one: normalized growth of COc1cc(C(=O)O[C@H]2CC[C@@]3(C)[C@@H]4CC[C@H]5[C@]6(O)C[C@H](O)[C@@]7(O)[C@@H](CN8C[C@@H](C)CC[C@H]8[C@@]7(C)O)[C@]6(O)C[C@@]53O[C@]24O)cc(OC)c1OC ?
**Result** 1.01

----------
- Assay Comment: chemical genetic growth profiling, strain panel (AID 1159580);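 also: tested at 20 µM; growth read once vehicle control cultures reached saturation at 30 °C; 1 = growth at the plate median or of vehicle wells; lower values mean less growth of the strain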
- Condition Description: S. cerevisiae deletion strains, growth OD, locus YPL241C, strain CIN2
Screen size: about 5,500 compounds; about 2,000 (36%) were called active. Not shown: some 18% with an inconclusive outcome. Cut-off read from the data, not from the text of the source: active = normalized growth mostly below about 0.91 (no sharp cut-off); inconclusive = no clear call, values can overlap the other calls; inactive = mostly above about 0.92. This is one part of the list.
The reply should be one of these categories: active, inactive

Check out these entries, answers already filled in.
Molecule	Category
O=C(COc1ccc(Cl)cc1)N1CCN(Cc2ccc3c(c2)OCO3)CC1	inactive
C/C=C1\[C@H]2C=C(C)C[C@]1(N)c1ccc(=O)[nH]c1C2	inactive
Cc1cc(C)c(NC(=O)C[C@H](CC(=O)O)c2cccc3ccccc23)c(C(=O)N2CCC3(CCCC3)CC2)c1	inactive
C=C/C(C)=C\CC1C(C)(O)CCC2C(C)(C)CCCC21C (centres undefined)	active
Cc1noc(C)c1C(=O)N1CCN(c2ncc(C(F)(F)F)cc2Cl)CC1	inactive
Nc1ncnc2c1ncn2C1CCCC1	inactive
Nc1ccc(-n2nc(C(F)(F)F)cc2C(F)(F)F)cc1	active
CC(C)(C)c1o[nH]c(=O)c1CC(N)C(=O)O (centres undefined)	inactive
O=c1c2ccccc2nc2n1CCc1c-2[nH]c2ccccc12	inactive
NNc1nncc2ccccc12	inactive

**Query** Tell me the assay call for O=C(Nc1ccc(Cl)c(Cl)c1)c1ccccc1 please.
**Result** active

**Query** Please state the recorded outcome for this molecule: Nc1c2c(nc3ccccc13)CCCC2
**Result** inactive

**Query** For this molecule, state the assay outcome: O=C(O)CSCC(=O)NC1CCN(Cc2ccccc2)CC1
**Result** inactive

**Query** What is the recorded call for this molecule in the test? Cc1noc(N)c1C(N)=S
**Result** active
